Entries and their MIC
# Tested on: S. aureus ATCC 25923
# assay-procedure: MIC, microdilution method (9.1)
# Assay type: cell-based, Staphylococcus aureus
# study-conditions: Staphylococcus aureus, ATCC25923, read after 18 h, read-out: MIC
Only the number, expressed in µg/mL, is required.

molecule | subject-of-test | obs-value
CC(C)(C)OC(=O)NCC(NC(=O)c1c[nH]c2cc(Br)ccc12)c1c[nH]c2ccc(Br)cc12 (stereo not shown) | S. aureus ATCC 25923 | 2
CC(C)(C)OC(=O)NCC(NC(=O)c1c[nH]c2ccc(Br)cc12)c1c[nH]c2ccccc12 (stereo not shown) | S. aureus ATCC 25923 | 8

Lookup result for CC(C)(C)OC(=O)NCC(NC(=O)c1c[nH]c2ccccc12)c1c[nH]c2cc(Br)ccc12 (stereo not shown) ; measured MIC: 8

====

The reader will find MIC measurements below, all made with Serratia marcescens CIP 103551.

compound | MIC
CC(C)(C)OC(=O)NCC(NC(=O)c1cccnc1)c1c[nH]c2ccc(Br)cc12 (centres unmarked) | > 128 µg/mL

Lookup result for CC(C)(C)OC(=O)NCC(NC(=O)c1c[nH]c2ccc(Br)cc12)c1c[nH]c2ccccc12 (centres unmarked) ; measured MIC: > 128 µg/mL

Lookup result for O=C(NC(C(=O)NCCO)c1c[nH]c2ccc(Br)cc12)c1c[nH]c2ccc(Br)cc12 (centres unmarked) ; measured MIC: > 32 µg/mL

Lookup result for CC(NC(=O)c1c[nH]c2ccc(Br)cc12)c1c[nH]c2ccc(Br)cc12 (centres unmarked) ; measured MIC: > 128 µg/mL

Lookup result for CC(C)(C)OC(=O)NCC(NC(=O)c1c[nH]c2ccc(Br)cc12)c1c[nH]c2cc(Br)ccc12 (centres unmarked) ; measured MIC: > 128 µg/mL

Lookup result for CC(C)(C)OC(=O)NCC(NC(=O)C(F)(F)F)c1c[nH]c2ccc(Br)cc12 (centres unmarked) ; measured MIC: > 128 µg/mL

Lookup result for Cn1cc(C(=O)NC(CNC(=O)OC(C)(C)C)c2c[nH]c3ccc(Br)cc23)c2cc(Br)ccc21 (centres unmarked) ; measured MIC: > 128 µg/mL

Lookup result for NCCCCNC(=O)C(NC(=O)c1c[nH]c2ccc(Br)cc12)c1c[nH]c2ccc(Br)cc12 (centres unmarked) ; measured MIC: > 32 µg/mL

====

# Tested on: S. aureus ATCC 25923
# assay-procedure: MIC, microdilution method (9.1)
# Format: cell-based, Staphylococcus aureus
# study-conditions: Staphylococcus aureus, ATCC25923, read after 18 h, read-out: MIC
measurement-name: log10 of MIC (log10 of the value in mg/L)
Short version: log10 scale, MIC, mg/L.

Answered cases to consult:
compound | measurement-name | obs-value
NCCCCNC(=O)C(NC(=O)c1c[nH]c2ccc(Br)cc12)c1c[nH]c2ccc(Br)cc12 (stereo not shown) | log10 of MIC | 0.90
CC(C)(C)OC(=O)NCC(NC(=O)c1c[nH]c2ccccc12)c1c[nH]c2ccc(Br)cc12 (stereo not shown) | log10 of MIC | 0.90
CC(C)(C)OC(=O)NCC(NC(=O)c1c[nH]c2cc(Br)ccc12)c1c[nH]c2ccccc12 (stereo not shown) | log10 of MIC | 1.20
CC(C)(C)OC(=O)NCC(NC(=O)c1c[nH]c2ccc(Br)cc12)c1c[nH]c2cc(Br)ccc12 (stereo not shown) | log10 of MIC | 0.00
O=C(NC(C(=O)NCCO)c1c[nH]c2ccc(Br)cc12)c1c[nH]c2ccc(Br)cc12 (stereo not shown) | log10 of MIC | 1.51

Lookup result for COC(=O)C(NC(=O)c1c[nH]c2ccc(Br)cc12)c1c[nH]c2ccc(Br)cc12 (stereo not shown) ; measured log10 of MIC: 0.60

Lookup result for CC(C)(C)OC(=O)NCC(NC(=O)c1c[nH]c2cc(Cl)ccc12)c1c[nH]c2ccc(Cl)cc12 (stereo not shown) ; measured log10 of MIC: 0.60

Lookup result for CC(C)(C)OC(=O)NCC(NC(=O)c1c[nH]c2cc(Br)ccc12)c1c[nH]c2cc(Br)ccc12 (stereo not shown) ; measured log10 of MIC: 0.30

Lookup result for CC(NC(=O)c1c[nH]c2ccc(Br)cc12)c1c[nH]c2ccc(Br)cc12 (stereo not shown) ; measured log10 of MIC: 0.30

Lookup result for CC(NC(=O)c1c[nH]c2ccc(F)cc12)c1c[nH]c2ccc(Br)cc12 (stereo not shown) ; measured log10 of MIC: 1.20

Lookup result for CC(C)(C)OC(=O)NCC(NC(=O)c1c[nH]c2ccc(Cl)cc12)c1c[nH]c2ccc(Cl)cc12 (stereo not shown) ; measured log10 of MIC: 0.60

Lookup result for O=C(NC(C(=O)NCCCCO)c1c[nH]c2ccc(Br)cc12)c1c[nH]c2ccc(Br)cc12 (stereo not shown) ; measured log10 of MIC: 1.51

Lookup result for O=C(NC(CO)c1c[nH]c2ccc(Br)cc12)c1c[nH]c2ccc(Br)cc12 (stereo not shown) ; measured log10 of MIC: 0.60
